Reference for the values: PubChem BioAssay (NCI)

system: SK-MEL-28 melanoma; test: NCI-60 one-dose screen, 48 h (100 = growth as untreated, 0 = no growth, -100 = all killed); conditions: 10 µM unless noted
About 83,000 compounds went through this panel and 20% of them were active in at least one assay; those are over-represented in the sample as a whole.
PROPERTY: growth (%)
The reply should be a number in %, with the unit left off.

The following compounds have reported results that may help.
> print(dat)
                            molecule.smiles  result.value
1  COc1cc2nc3cc([N+](=O)[O-])ccc3c(NCCCNCC(C)(C)O)c2cc1OC           -64
2  COc1cc(/C=C2\CN(C(=O)CCN3CCC(=NO)CC3)C/C(=C\c3cc(OC)c(OC)c(OC)c3)C2=O)cc(OC)c1OC         -76.7
3  Cc1ccc(-c2nc(/C=N/Nc3cc(C)nc4ccc(Cl)cc34)c(C)o2)cc1         -68.8

Query block: Find the measured growth: item `CC[C@H](Nc1nc(N)nc(C)c1C#N)c1nc2cccc(NCc3ccc(C(=O)NO)cc3)c2c(=O)n1-c1ccccc1` , target or system SK-MEL-28 melanoma.
Result block: -0.295
